Source of measurements: patent US20240158348A1

Each entry below carries its reported Ragweed plant response rating.
Test system: ragweed (common ragweed, Ambrosia artemisiifolia)
Test: Test C postemergence, ragweed
Assay type: in vivo
Details: 31 g ai/ha Postemergence; visual injury, 0 to 100 scale (0 no effect, 100 complete control)
Answer with a bare number; do not write a unit.

Some entries whose results are on file:
CO/N=C1\CCN(c2cc(NS(=O)(=O)C(F)(F)F)c(C)cc2C)C1=O; 70
CC(=O)N(c1cc(N2CCC(OC3CC3)C2=O)c(C)cc1Cl)S(=O)(=O)C(F)(F)F (stereo not shown); 80
Cc1cc(C)c(N2CCC(OC3CC3)C2=O)cc1NS(=O)(=O)C(F)(F)F (single isomer, unassigned) [Compound 30]; 90
Cc1c(NS(=O)(=O)C(F)(F)F)cc(N2CCC(OC3CCC3)C2=O)c(C)c1F (stereo not shown); 60
Cc1c(N2CCC(OC3CC3)C2=O)cc(N(C(=O)OCC(C)C)S(=O)(=O)C(F)(F)F)c(C)c1C (stereo not shown); 70
Cc1cc(C)c(N2CCC(OCC3CCCO3)C2=O)cc1NS(=O)(=O)C(F)(F)F (stereo not shown); 40

--- query ---
Req: Return Ragweed plant response rating measured with ragweed (common ragweed, Ambrosia artemisiifolia) given this compound: CC(=O)N(c1cc(N2CCC(OC3CC3)C2=O)c(C)cc1C)S(=O)(=O)C(F)(F)F (stereo not shown)
Resp: 70

###

Tested on: galium (catchweed bedstraw, Galium aparine)
Assay: Test C postemergence, galium
Type: in vivo
Settings: 31 g ai/ha Postemergence; visual injury, 0 to 100 scale (0 no effect, 100 complete control)
Each entry below carries its reported Galium plant response rating.
Answer with a bare number; do not write a unit.

Some entries whose results are on file:
Cc1cc(Cl)c(N(COC(=O)C(C)(C)C)S(=O)(=O)C(F)(F)F)cc1N1CCC(OC2CC2)C1=O (centres unmarked); 100
Cc1cc(C)c(N2CCC(OCC3CC3(F)F)C2=O)cc1NS(=O)(=O)C(F)(F)F (centres unmarked); 100
CO/N=C1\CCN(c2cc(NS(=O)(=O)C(F)(F)F)c(C)cc2C)C1=O; 90
Cc1cc(C)c(N2CCC(OC3COC3)C2=O)cc1NS(=O)(=O)C(F)(F)F (centres unmarked); 100
Cc1cc(C)c(N(C(=O)OCC(C)C)S(=O)(=O)C(F)(F)F)cc1N1CCC(OC2CC2)C1=O (centres unmarked); 100

Req: Return Galium plant response rating measured with galium (catchweed bedstraw, Galium aparine) given this compound: Cc1cc(C)c(N2CCC(O)C2=O)cc1NS(=O)(=O)C(F)(F)F (centres unmarked)
Resp: 100

Req: Let us now turn to COC(=O)N(c1cc(N2CCC(OC3CC3)C2=O)c(C)cc1C)S(=O)(=O)C(F)(F)F (centres unmarked)
Resp: 50

Req: Let us now turn to C=C(C)COC1CCN(c2cc(NS(=O)(=O)C(F)(F)F)c(C)cc2C)C1=O (centres unmarked)
Resp: 100

###

Tested on: galium (catchweed bedstraw, Galium aparine)
Assay: Test C postemergence, galium
Assay type: in vivo
Details: 125 g ai/ha Postemergence; visual injury, 0 to 100 scale (0 no effect, 100 complete control)
measurement_label: Galium plant response rating
Answer with a bare number; do not write a unit.

Cc1cc(C)c(N2CCC(OCC3CC3(F)F)C2=O)cc1NS(=O)(=O)C(F)(F)F (centres unmarked); 100

Req: Value lookup for Galium plant response rating; key = Cc1cc(C)c(N2CCC(OCC3CCC3(F)F)C2=O)cc1NS(=O)(=O)C(F)(F)F (centres unmarked)
Resp: 100

Req: Let us now turn to Cc1cc(C)c(N2CCC(OCC3CCCC3)C2=O)cc1NS(=O)(=O)C(F)(F)F (centres unmarked)
Resp: 90

Req: Let us now turn to C=C(C)COC1CCN(c2cc(NS(=O)(=O)C(F)(F)F)c(C)cc2C)C1=O (centres unmarked)
Resp: 100

Req: Let us now turn to Cc1c(NS(=O)(=O)C(F)(F)F)cc(N2CCC(OCC3CC3)C2=O)c(C)c1F (centres unmarked)
Resp: 100

Req: Let us now turn to Cc1cc(C)c(N2CCC(OCC3CCCO3)C2=O)cc1NS(=O)(=O)C(F)(F)F (centres unmarked)
Resp: 90

Req: Let us now turn to Cc1c(NS(=O)(=O)C(F)(F)F)cc(N2CCC(OC3CC3)C2=O)c(C)c1C (centres unmarked)
Resp: 90

Req: Let us now turn to C#CC(C)OC1CCN(c2cc(NS(=O)(=O)C(F)(F)F)c(C)cc2C)C1=O (centres unmarked)
Resp: 90
